protein stability index: recorded values
B1: PLAGL1 (parent)
chain: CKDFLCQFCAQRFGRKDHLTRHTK

Variants of: B1
Test: protein stability index of a GFP-peptide fusion (GPS, HEK-293T) (PSI 1-6); higher = more stable;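 also: lentivirally expressed fusions sorted by FACS into six bins by GFP to DsRed ratio, PSI derived from sequencing read proportions per bin multiplied by bin number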
Settings: c terminus: a fixed tail appended
property-measured: protein stability index

> print(dat)
              input.sequence        property.measured  value.measured
 1  CKDFLCQFCAQRFGRKDHLTRHTW  protein stability index            2.03
 2  CKDFLDQFCAQRFGRKDHLTRHTK  protein stability index            2.17
 3  CKDFLCQFCDQRFGRKDHLTRHTK  protein stability index            1.87
 4  CKDFLCKFCAQRFGRKDHLTRHTK  protein stability index            2.21
 5  CKDFLCQFCAHRFGRKDHLTRHTK  protein stability index            1.67
 6  CKDFLCQFCAQRFGRKDHLTRHAK  protein stability index               2
 7  CKDFLCQFCAQRFGVKDHLTRHTK  protein stability index             2.3
 8  CKDFLCQFCAQRFGRKDALTRHTK  protein stability index            2.51
 9  CKDFLCQFCQQRFGRKDHLTRHTK  protein stability index            1.44
10  CKDFLCFFCAQRFGRKDHLTRHTK  protein stability index            1.74
11  KKDFLCQFCAQRFGRKDHLTRHTK  protein stability index            2.11
12  CKDFLCQFCAQEFGRKDHLTRHTK  protein stability index            2.13
13  NKDFLCQFCAQRFGRKDHLTRHTK  protein stability index            1.72
14  CKDFLCQFCAQRFGRKSHLTRHTK  protein stability index            2.12
15  CKDFLGQFCAQRFGRKDHLTRHTK  protein stability index            1.84
16  CFDFLCQFCAQRFGRKDHLTRHTK  protein stability index            2.35
17  CKDFLCQFCAQRFGRKDNLTRHTK  protein stability index            1.97
18  CKDFLCQFCAIRFGRKDHLTRHTK  protein stability index            1.82
19  CKDFLCQFCARRFGRKDHLTRHTK  protein stability index             2.3
20  CKDFLVQFCAQRFGRKDHLTRHTK  protein stability index            1.89
21  CKDFLCQFCAQRFGRKLHLTRHTK  protein stability index            2.03
22  CKDNLCQFCAQRFGRKDHLTRHTK  protein stability index            2.64
23  CKDFLCNFCAQRFGRKDHLTRHTK  protein stability index            1.74
24  CKDFLCQSCAQRFGRKDHLTRHTK  protein stability index            2.19
25  CKDFLCQFCAQRFGRKDSLTRHTK  protein stability index            1.82
26  CKDFYCQFCAQRFGRKDHLTRHTK  protein stability index            1.82
27  CKDFLCQTCAQRFGRKDHLTRHTK  protein stability index            2.81
28  CKDFLCCFCAQRFGRKDHLTRHTK  protein stability index            1.52
29  CKDILCQFCAQRFGRKDHLTRHTK  protein stability index            1.54
30  CTDFLCQFCAQRFGRKDHLTRHTK  protein stability index            2.09
31  CKDFLCQFLAQRFGRKDHLTRHTK  protein stability index            2.22
32  CKDFLCQFCAQRQGRKDHLTRHTK  protein stability index            2.45
33  CKDFLCQFCAQRFGRKDHLIRHTK  protein stability index            1.58
34  CKDFLCQFCAQRFGRKDHLERHTK  protein stability index            2.29
35  CKDFLCQFCAQRFGRKDHDTRHTK  protein stability index            3.71
36  CKFFLCQFCAQRFGRKDHLTRHTK  protein stability index            3.19
37  CKDFLCQFCAQRFGRKDHLTRGTK  protein stability index            2.56
38  CKDFLCQFCAQRFGRKDHLTPHTK  protein stability index             2.1

src = the supplement of paper PMC10567573
